In this section we review reported Ki values for a set of compounds.
target: β-secretase(BACE) (Homo sapiens); construct: purchased Panvera; assay: BACE Assay-2 (FS1 substrate, IC50 and Ki); assay type: biochemical; conditions: procedure of Example 159, FS1 substrate; read-out: Ki μM (159)
measuredAttribute: Ki

• COC(=O)[C@H]1CC[C@@H](N(C)C(=O)CC[C@@H](C2CCOCC2)N2Cc3cc(Oc4ccccc4)ccc3N=C2N)CC1 = 0.031 µM
• CC(C)C(=O)NCCN1Cc2cc(Oc3ccccc3)ccc2N=C1N = 0.32 µM
• CC(C)(C)OC(=O)NCCCN1Cc2cc(Oc3ccccc3)ccc2N=C1N = 4 µM
• COc1ccccc1-c1ccc2c(c1)CN([C@@H](CCC(=O)N(C)CCC#N)C1CCCCC1)C(N)=N2 = 0.3 µM
• CN(CCCN1Cc2cc(C(=O)c3ccccc3)ccc2N=C1N)C1CCCCC1 = 4 µM
• CCOC(=O)C1CCC(N(C)C(=O)CCC(C2CCOCC2)N2Cc3cc(Oc4ccccc4)ccc3N=C2N)CC1 (stereo not shown) = 0.168 µM
• Cc1ccccc1Oc1ccc2c(c1)CN(Cc1cccc(C(=O)N(C)C3CCCCC3)c1)C(N)=N2 = 1.1 µM
• CCCN1Cc2cc(Oc3cccc(NS(=O)(=O)c4ccccc4)c3)ccc2N=C1N = 0.23 µM
• Cc1cccc(-c2ccc3c(c2)CN(Cc2cccc(C(=O)N(C)C4CCCCC4)c2)C(N)=N3)c1 = 0.2 µM
• COc1ccc(C(CCC(=O)N(C)C2CCCCC2)N2Cc3cc(Oc4ccccc4)ccc3N=C2N)cc1 (stereo not shown) = 0.23 µM
• NC1=Nc2ccc(Oc3ccccc3)cc2CN1C(CNC(=O)c1ccccc1)C1CCCCC1 (stereo not shown) = 0.074 µM
• CC1CCCCC1C(=O)NCCN1Cc2cc(Oc3ccccc3)ccc2N=C1N (stereo not shown) = 0.1 µM
• NC1=Nc2ccc(-c3ccccc3)cc2CN1CCNC(=O)CC1CCCC1 = 0.18 µM
• CN(C(=O)CCC(C1CCOCC1)N1Cc2cc(Oc3ccccc3)ccc2N=C1N)C1CCCCC1 (stereo not shown) = 0.011 µM
• CC(C)CC(=O)NC[C@@H](C(C)C)N1Cc2cc(Oc3ccccc3)ccc2N=C1N = 0.02 µM
• CN(C(=O)c1cccc(CN2Cc3cc(-c4c(Cl)cccc4Cl)ccc3N=C2N)c1)C1CCCCC1 = 0.25 µM

* * *

biological target: β-secretase(BACE) (Homo sapiens, UniProt P56817); construct: purchased Panvera; assay: BACE Assay-1 (MCA-substrate, IC50); format: biochemical; conditions: procedure of Example 158; read-out: IC50 μM (158)
Sequence (P56817 46-501): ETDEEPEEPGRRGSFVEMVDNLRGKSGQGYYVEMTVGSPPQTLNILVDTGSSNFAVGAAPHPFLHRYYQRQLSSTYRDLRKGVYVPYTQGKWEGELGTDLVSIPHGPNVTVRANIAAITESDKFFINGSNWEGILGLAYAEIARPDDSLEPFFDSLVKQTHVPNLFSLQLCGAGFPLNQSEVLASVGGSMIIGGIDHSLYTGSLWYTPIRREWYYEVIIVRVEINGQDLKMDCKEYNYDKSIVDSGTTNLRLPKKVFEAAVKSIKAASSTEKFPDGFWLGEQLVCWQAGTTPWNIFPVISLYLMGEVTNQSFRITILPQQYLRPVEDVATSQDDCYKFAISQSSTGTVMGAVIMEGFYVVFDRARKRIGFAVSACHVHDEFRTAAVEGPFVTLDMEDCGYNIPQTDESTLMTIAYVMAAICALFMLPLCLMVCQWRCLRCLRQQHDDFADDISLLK
measuredAttribute: log10(IC50) (log10 of the value in µM)

- CCCC(CCCC(=O)N(C)C1CCCCC1)N1Cc2cc(Oc3ccccc3)ccc2N=C1N (centres unmarked): -1.13
- CN(C(=O)CCC(CCC(=O)N(C)C1CCCCC1)N1Cc2cc(Oc3ccccc3)ccc2N=C1N)C1CCCCC1: -0.33
- CN(C(=O)CCN1Cc2cc(C(=O)c3ccccc3)ccc2N=C1N)c1ccccc1: 1.20
- NC1=Nc2ccc(Oc3ccccc3)cc2CN1CCCNC(=O)C1CCCCC1: -0.49
- CN(C(=O)CCCCN1Cc2cc(C(=O)c3ccccc3)ccc2N=C1N)C1CCCCC1: 0.08
- CN(C(=O)CCCCN1Cc2cc(Oc3cccc(NC(=O)OCc4ccccc4)c3)ccc2N=C1N)C1CCCCC1: -0.82
- NC1=Nc2ccc(Oc3ccccc3)cc2CN1C(CNC(=O)c1ccccc1)C1CCCCC1 (centres unmarked): -1.28
